Data origin, for the record: ChEMBL document CHEMBL3885881

Species: Rattus norvegicus
Test: DrugMatrix - Regimen: Daily Repeat
Assay type: toxicity, organism-based, Sprague-Dawley
Parameters: regimen Daily Repeat, gender Male, age 6-8 weeks
Conditions: in vivo, iv, 0 mg/kg, 72 h, tissue Plasma, dose level Control, time 3 day, vehicle 100 % SALINE
property_label: ALKALINE PHOSPHATASE
Report as: number unit

Some molecules with recorded ALKALINE PHOSPHATASE:
Consider the molecule CC1(C)S[C@@H]2[C@H](NC(=O)[C@H](NC(=O)N3CCNC3=O)c3ccccc3)C(=O)N2[C@H]1C(=O)O and give its measured ALKALINE PHOSPHATASE.
400.83 u/L

Further, for CN(N=O)C(=O)N[C@@H](C=O)[C@@H](O)[C@H](O)[C@H](O)CO ?
383.17 u/L

Further, for CC[C@@]1(O)C(=O)OCc2c1cc1n(c2=O)Cc2cc3ccccc3nc2-1 ?
406.83 u/L

Consider the additional molecule presented here.
Consider the molecule NCC[C@H](O)C(=O)N[C@@H]1C[C@H](N)[C@@H](O[C@H]2O[C@H](CN)[C@@H](O)[C@H](O)[C@H]2O)[C@H](O)[C@H]1O[C@H]1O[C@H](CO)[C@@H](O)[C@H](N)[C@H]1O and give its measured ALKALINE PHOSPHATASE.
351.17 u/L

---

Organism: Rattus norvegicus
Test: DrugMatrix - Regimen: Daily Repeat
Format: toxicity, organism-based, Sprague-Dawley
Set-up: regimen Daily Repeat, gender Male, age 6-8 weeks
Details: in vivo, ip, 8 mg/kg, […], tissue Blood, route intraperitoneal, dose level High, time 14 day, vehicle 100 % SALINE
property_label: ABSOLUTE BASOPHIL (cells/µL)
A number alone suffices; assume cells/µL.

Consider the substance GOLD SODIUM THIOMALATE and give its measured ABSOLUTE BASOPHIL.
34

---

Organism: Rattus norvegicus
Assay: DrugMatrix - Regimen: Daily Repeat
Assay type: toxicity, organism-based, Sprague-Dawley
Design: regimen Daily Repeat, gender Male, age 6-8 weeks
Conditions: in vivo, po, 0 mg/kg, 120 h, tissue Blood, route oral GAVAGE, dose level Control, time 5 day, […]
property_label: LEUKOCYTE COUNT (x10E3/uL)
A number alone suffices; assume x10E3/uL.

Some molecules with recorded LEUKOCYTE COUNT:
Consider the molecule CC1=C(/C=C/C(C)=C/C=C/C(C)=C\C(=O)O)C(C)(C)CCC1 [ISOTRETINOIN] and give its measured LEUKOCYTE COUNT.
9.15

Further, for CCCC[C@@H](CC)COC(=O)c1ccccc1C(=O)OC[C@@H](CC)CCCC [BIS(2-ETHYLHEXYL)PHTHALATE] ?
12.2

Further, for CC(C)(Oc1ccc(CCNC(=O)c2ccc(Cl)cc2)cc1)C(=O)O [BEZAFIBRATE] ?
8.69

More entries:
Consider the molecule CN(C)CCCC1(c2ccc(F)cc2)OCc2cc(C#N)ccc21 (stereo not given) [CITALOPRAM] and give its measured LEUKOCYTE COUNT.
9.93

Further, for CC(C)n1c(/C=C/C(O)CC(O)CC(=O)O)c(-c2ccc(F)cc2)c2ccccc21 (stereo not given) [FLUVASTATIN] ?
10.77

---

Species: Rattus norvegicus
Assay: DrugMatrix - Regimen: Daily Repeat
Format: toxicity, organism-based, Sprague-Dawley
Set-up: regimen Daily Repeat, gender Male, age 6-8 weeks
Conditions: in vivo, ip, 160 mg/kg, 120 h, tissue Blood, route intraperitoneal, dose level High, time 5 day, vehicle 100 % SALINE
property_label: ABSOLUTE LYMPHOCYTE (cells/µL)
A number alone suffices; assume cells/µL.

Consider the molecule NCC[C@H](O)C(=O)N[C@@H]1C[C@H](N)[C@@H](O[C@H]2O[C@H](CN)[C@@H](O)[C@H](O)[C@H]2O)[C@H](O)[C@H]1O[C@H]1O[C@H](CO)[C@@H](O)[C@H](N)[C@H]1O and give its measured ABSOLUTE LYMPHOCYTE.
7260

---

Species on record: Rattus norvegicus
Assay: DrugMatrix - Regimen: Daily Repeat
Type: toxicity, organism-based, Sprague-Dawley
Set-up: regimen Daily Repeat, gender Male, age 6-8 weeks
Details: in vivo, po, 0 mg/kg, 120 h, tissue Plasma, route oral GAVAGE, dose level Control, time 5 day, vehicle 100 % WATER
property_label: ALKALINE PHOSPHATASE (u/L)
A number alone suffices; assume u/L.

Some compounds with recorded ALKALINE PHOSPHATASE:
Consider the compound COc1ccc(C(CN(C)C)C2(O)CCCCC2)cc1 (centres undefined) [VENLAFAXINE] and give its measured ALKALINE PHOSPHATASE.
415.67

Further, for C[C@]12Cc3c[nH]nc3C[C@@H]1CC[C@@H]1[C@@H]2CC[C@@]2(C)[C@H]1CC[C@]2(C)O [STANOZOLOL] ?
343.17

Further, for O=C1NC(=O)C(c2ccccc2)(c2ccccc2)N1 [PHENYTOIN] ?
395

Further, for COc1cc2c(N3CCN(C(=O)Nc4ccc(OC(C)C)cc4)CC3)ncnc2cc1OCCCN1CCCCC1 [TANDUTINIB] ?
417.83

Further, for CN1CCN(C(=O)OC2c3nccnc3C(=O)N2c2ccc(Cl)cn2)CC1 (centres undefined) [ZOPICLONE] ?
367.5

More entries:
Consider the compound NNC(=O)c1ccncc1 [ISONIAZID] and give its measured ALKALINE PHOSPHATASE.
339.67

Further, for CC(CCc1ccccc1)NCC(O)c1ccc(O)c(C(N)=O)c1 (centres undefined) [LABETALOL] ?
345

Further, for NC(=O)c1ncn([C@@H]2O[C@H](CO)[C@@H](O)[C@H]2O)n1 [RIBAVIRIN] ?
380.17

Further, for Nc1ccc(S(=O)(=O)Nc2ccnn2-c2ccccc2)cc1 [SULFAPHENAZOLE] ?
343

---

Species on record: Rattus norvegicus
Experiment: DrugMatrix - Regimen: Daily Repeat
Format: toxicity, organism-based, Sprague-Dawley
Set-up: regimen Daily Repeat, gender Male, age 6-8 weeks
Conditions: in vivo, po, 10 mg/kg, 120 h, tissue Blood, route oral GAVAGE, dose level Low, time 5 day, vehicle .5 % CMC
Entries and their ABSOLUTE EOSINOPHIL
A number alone suffices; assume CELLS/uL.

Some molecules with recorded ABSOLUTE EOSINOPHIL:
Consider the molecule O=C1CN=C(c2ccccc2)c2cc([N+](=O)[O-])ccc2N1 and give its measured ABSOLUTE EOSINOPHIL.
0

Further, for CC(=O)O[C@]1(C(C)=O)CC[C@H]2[C@@H]3C=C(Cl)C4=CC(=O)CC[C@]4(C)[C@H]3CC[C@@]21C [CHLORMADINONE ACETATE] ?
0

Further, for COc1c(C)c2c(c(O)c1C/C=C(\C)CCC(=O)OCCN1CCOCC1)C(=O)OC2 [MYCOPHENOLATE MOFETIL] ?
90

More entries:
Consider the molecule NS(=O)(=O)c1cc2c(cc1Cl)NCNS2(=O)=O [HYDROCHLOROTHIAZIDE] and give its measured ABSOLUTE EOSINOPHIL.
0

---

Entries and their SODIUM
Species: Rattus norvegicus
Assay: DrugMatrix - Regimen: Daily Repeat
Assay type: toxicity, organism-based, Sprague-Dawley
Parameters: regimen Daily Repeat, gender Male, age 6-8 weeks
Settings: in vivo, po, 1500 mg/kg, 120 h, tissue Plasma, route oral GAVAGE, dose level High, time 5 day, vehicle .5 % CMC
A number alone suffices; assume MEQ/L.

Some compounds with recorded SODIUM:
Consider the compound CCOC(=O)[C@H](CCc1ccccc1)N[C@@H](C)C(=O)N1[C@H](C(=O)O)C[C@@H]2CCC[C@@H]21 and give its measured SODIUM.
143.93

Further, for NS(=O)(=O)c1cc2c(cc1Cl)NCNS2(=O)=O [HYDROCHLOROTHIAZIDE] ?
144.7

Further, for COC(=O)c1ccc(O)cc1 ?
145.9

Consider the additional compound presented here.
Consider the compound O=C1CCc2cc(OCCCCc3nnnn3C3CCCCC3)ccc2N1 and give its measured SODIUM.
151.33

---

Species on record: Rattus norvegicus
Test: DrugMatrix - Regimen: Daily Repeat
Assay type: toxicity, organism-based, Sprague-Dawley
Parameters: regimen Daily Repeat, gender Male, age 6-8 weeks
Details: in vivo, po, 0 mg/kg, […], tissue Blood, route oral GAVAGE, dose level Control, time 14 day
property_label: ABSOLUTE BASOPHIL (cells/µL)
A number alone suffices; assume cells/µL.

Consider the compound C=CCN [ALLYLAMINE] and give its measured ABSOLUTE BASOPHIL.
73.3

---

Entries and their ABSOLUTE SEGMENTED NEUTROPHIL
Organism: Rattus norvegicus
Assay: DrugMatrix - Regimen: Daily Repeat
Type: toxicity, organism-based, Sprague-Dawley
Design: regimen Daily Repeat, gender Male, age 6-8 weeks
Conditions: in vivo, po, 10 mg/kg, 120 h, tissue Blood, route oral GAVAGE, dose level Low, time 5 day, vehicle .5 % CMC
A number alone suffices; assume CELLS/uL.

Consider the compound NS(=O)(=O)c1cc2c(cc1Cl)NCNS2(=O)=O [HYDROCHLOROTHIAZIDE] and give its measured ABSOLUTE SEGMENTED NEUTROPHIL.
1466

Further, for COc1c(C)c2c(c(O)c1C/C=C(\C)CCC(=O)OCCN1CCOCC1)C(=O)OC2 [MYCOPHENOLATE MOFETIL] ?
1408

Further, for O=C1CN=C(c2ccccc2)c2cc([N+](=O)[O-])ccc2N1 [NITRAZEPAM] ?
1008

Further, for CC(=O)O[C@]1(C(C)=O)CC[C@H]2[C@@H]3C=C(Cl)C4=CC(=O)CC[C@]4(C)[C@H]3CC[C@@]21C [CHLORMADINONE ACETATE] ?
1304
